assay: Cytotoxicity against human NCM460 cells assessed as inhibition of cell growth measured after 48 hrs by MTT assay; type: toxicity, cell-based

cpd smiles: CCN(CC)CCCNc1cc2nc(/C=C/c3ccc(C(C)C)cc3)n(Cc3cccc(Br)c3)c(=O)c2cc1F
bound operator: =
IC50 at 48 h [µM]: 15.3
//
cpd smiles: CCN(CC)CCCNc1cc2nc(/C=C/c3ccc(C(C)C)cc3)n(CCCl)c(=O)c2cc1F
bound operator: =
IC50 at 48 h [µM]: 15
//
cpd smiles: CCN(CC)CCCNc1cc2nc(/C=C/c3ccc(C(C)C)cc3)n(CCCCl)c(=O)c2cc1F
bound operator: =
IC50 at 48 h [µM]: 9.6
//
cpd smiles: CCN(CC)CCCNc1cc2nc(/C=C/c3ccc(C(C)C)cc3)n(CCN(C)C)c(=O)c2cc1F
bound operator: >
IC50 at 48 h [µM]: 25
//
cpd smiles: CCN(CC)CCCNc1cc2nc(/C=C/c3ccc(C(C)C)cc3)n(Cc3ccc(Br)cc3)c(=O)c2cc1F
bound operator: =
IC50 at 48 h [µM]: 15.6

----------
test: Disruption of BLM/5'-biotin-labeled duplex forked-DNA interaction incubated for 30 mins by ELISA assay
pIC50: −log10 of the molar value.

cpd smiles: CCN(CC)CCCNc1cc2nc(/C=C/c3ccc(C(C)C)cc3)n(CCCl)c(=O)c2cc1F
pIC50: 5.14
//
cpd smiles: CCN(CC)CCCNc1cc2nc(/C=C/c3ccc(C(C)C)cc3)n(CCCCl)c(=O)c2cc1F
pIC50: 5.31
//
cpd smiles: CCN(CC)CCCNc1cc2nc(/C=C/c3ccc(C(C)C)cc3)n(CCN(C)C)c(=O)c2cc1F
pIC50: 5.35
//
cpd smiles: CCN(CC)CCCNc1cc2nc(/C=C/c3ccc(C(C)C)cc3)n(Cc3ccc(Br)cc3)c(=O)c2cc1F
pIC50: 5.64
//
cpd smiles: CCN(CC)CCCNc1cc2nc(/C=C/c3ccc(C(C)C)cc3)n(Cc3cccc(Br)c3)c(=O)c2cc1F
pIC50: 5.00

----------
Recorded measurements of IC50, one per entry
biological target: RecQ-like DNA helicase BLM (Homo sapiens, UniProt P54132); experiment: Inhibition of BLM (unknown origin) assessed as ATP hydrolysis using 5'-biotin-labeled duplex forked-DNA as substrate incubated for 10 mins in presence of ATP by luciferase assay
Sequence (P54132 whole entry): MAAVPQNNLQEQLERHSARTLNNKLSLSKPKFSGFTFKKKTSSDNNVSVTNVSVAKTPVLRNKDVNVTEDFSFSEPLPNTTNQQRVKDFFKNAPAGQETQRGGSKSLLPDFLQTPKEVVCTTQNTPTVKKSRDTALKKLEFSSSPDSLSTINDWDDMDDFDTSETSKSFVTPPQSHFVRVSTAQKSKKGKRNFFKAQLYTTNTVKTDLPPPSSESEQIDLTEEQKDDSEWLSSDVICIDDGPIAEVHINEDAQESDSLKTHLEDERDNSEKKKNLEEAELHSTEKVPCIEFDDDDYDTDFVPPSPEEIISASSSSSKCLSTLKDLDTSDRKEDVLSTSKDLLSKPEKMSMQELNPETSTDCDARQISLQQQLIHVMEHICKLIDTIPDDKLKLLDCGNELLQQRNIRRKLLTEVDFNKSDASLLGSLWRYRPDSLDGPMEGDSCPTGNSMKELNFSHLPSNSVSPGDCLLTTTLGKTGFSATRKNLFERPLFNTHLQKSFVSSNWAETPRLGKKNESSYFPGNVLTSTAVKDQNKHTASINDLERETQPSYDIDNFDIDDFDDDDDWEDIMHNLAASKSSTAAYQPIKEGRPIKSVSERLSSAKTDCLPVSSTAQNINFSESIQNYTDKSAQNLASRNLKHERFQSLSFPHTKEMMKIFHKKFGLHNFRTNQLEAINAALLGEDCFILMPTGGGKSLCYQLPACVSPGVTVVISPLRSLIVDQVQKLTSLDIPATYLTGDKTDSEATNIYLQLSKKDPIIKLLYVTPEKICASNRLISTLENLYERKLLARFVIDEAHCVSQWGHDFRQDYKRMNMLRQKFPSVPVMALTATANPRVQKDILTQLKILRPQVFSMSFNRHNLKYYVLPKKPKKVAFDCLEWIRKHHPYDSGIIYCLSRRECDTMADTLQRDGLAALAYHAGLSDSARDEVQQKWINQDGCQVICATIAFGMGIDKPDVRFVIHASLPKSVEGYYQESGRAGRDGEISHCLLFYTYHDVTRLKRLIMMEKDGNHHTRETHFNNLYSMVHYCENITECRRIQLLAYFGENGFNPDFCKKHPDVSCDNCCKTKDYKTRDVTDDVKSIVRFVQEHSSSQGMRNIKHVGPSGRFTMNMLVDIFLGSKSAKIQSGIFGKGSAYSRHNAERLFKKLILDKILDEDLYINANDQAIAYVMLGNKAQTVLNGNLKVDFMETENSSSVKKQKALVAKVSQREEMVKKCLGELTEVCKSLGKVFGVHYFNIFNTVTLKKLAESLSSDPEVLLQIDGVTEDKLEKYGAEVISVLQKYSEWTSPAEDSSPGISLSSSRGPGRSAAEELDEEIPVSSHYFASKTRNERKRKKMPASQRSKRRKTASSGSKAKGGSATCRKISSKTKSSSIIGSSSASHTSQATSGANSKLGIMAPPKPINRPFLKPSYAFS
measurement kind: IC50

cpd smiles: CCN(CC)CCCNc1cc2nc(/C=C/c3ccc(C(C)C)cc3)n(CCN(C)C)c(=O)c2cc1F
result: > 32 µM
--
cpd smiles: CCN(CC)CCCNc1cc2nc(/C=C/c3ccc(C(C)C)cc3)n(Cc3ccc(Br)cc3)c(=O)c2cc1F
result: > 32 µM
--
cpd smiles: CCN(CC)CCCNc1cc2nc(/C=C/c3ccc(C(C)C)cc3)n(CCCl)c(=O)c2cc1F
result: > 32 µM
--
cpd smiles: CCN(CC)CCCNc1cc2nc(/C=C/c3ccc(C(C)C)cc3)n(CCCCl)c(=O)c2cc1F
result: > 32 µM
--
cpd smiles: CCN(CC)CCCNc1cc2nc(/C=C/c3ccc(C(C)C)cc3)n(Cc3cccc(Br)c3)c(=O)c2cc1F
result: > 32 µM

----------
Recorded measurements of IC50, one per entry
target: RecQ-like DNA helicase BLM (Homo sapiens, UniProt P54132); assay: Inhibition of His-tagged BLM (unknown origin) expressed in Escherichia coli BL21 (DE3) using 5'-biotin-labeled duplex forked-DNA as substrate incubated for 10 mins followed by substrate addition measured after 30 mins in presence of ATP by electrophoretic mobility shift assay

cpd smiles: CCN(CC)CCCNc1cc2nc(/C=C/c3ccc(C(C)C)cc3)n(Cc3ccccc3Cl)c(=O)c2cc1F
IC50, µM: 9.7

cpd smiles: CCN(CC)CCCNc1cc2nc(/C=C/c3ccc(C(C)C)cc3)n(Cc3ccccc3)c(=O)c2cc1F
IC50, µM: 5.8

cpd smiles: CCN(CC)CCCNc1cc2nc(/C=C/c3ccc(C(C)C)cc3)n(Cc3ccc(OC)cc3)c(=O)c2cc1F
IC50, µM: 5
